The measured values listed here are drawn from patent US11795460B2.

System: off-target genomic sites
Assay: Off-target oligo insertion based assay in HEK293_Cas9 cells, dgRNAs and sgRNAs (Tables 23, 24)
Type: cell-based, human
Conditions: Table 30; TTR sgRNAs, HekCas9 cells, repeated from Example 5 for comparison
Experimental: An oligo insertion based assay (See, e.g., Tsai et al., Nature Biotechnology 33, 187-197; 2015) was used to determine potential off-target genomic sites cleaved by Cas9 targeting TTR. […] The gDNA was quantified using the Qubit High Sensitivity dsDNA kit (Life Technologies). […] Additionally, a subset of the guides was assessed for off-target potential as modified sgRNAs in the Hek_Cas9 cells via the oligo based insertion method described above. […]
Strand notation (5' to 3'): a small letter for the sugar, then the base; units joined by * are phosphorothioate-linked, units joined directly phosphodiester-linked; [ ] holds rarer units or linkages, { } end groups; capitals alone tell only the bases. m = 2'-O-methyl; r = 2'-OH (RNA)
measurement name: # Sites in HekCas9 cells (Example 5)
A bare number is all that is needed in reply.

Worked cases, # Sites in HekCas9 cells (Example 5) given:
G000480: TTR sgRNA modified sequence, Human, SEQ ID No. 87; guide sequence of CR003353 (nucleic acid) guide: mA*mA*mA*rGrGrCrUrGrCrUrGrArUrGrArCrArCrCrUrGrUrUrUrUrArGrAmGmCmUmAmGmAmAmAmUmAmGmCrArArGrUrUrArArArArUrArArGrGrCrUrArGrUrCrCrGrUrUrArUrCrAmAmCmUmUmGmAmAmAmAmAmGmUmGmGmCmAmCmCmGmAmGmUmCmGmGmUmGmCmU*mU*mU*mU	11
G000481: TTR sgRNA modified sequence, Human, SEQ ID No. 88; guide sequence of CR003345 (nucleic acid) guide: mU*mC*mU*rArGrArArCrUrUrUrGrArCrCrArUrCrArGrGrUrUrUrUrArGrAmGmCmUmAmGmAmAmAmUmAmGmCrArArGrUrUrArArArArUrArArGrGrCrUrArGrUrCrCrGrUrUrArUrCrAmAmCmUmUmGmAmAmAmAmAmGmUmGmGmCmAmCmCmGmAmGmUmCmGmGmUmGmCmU*mU*mU*mU	3
G000488: TTR sgRNA modified sequence, Human, SEQ ID No. 95; guide sequence of CR003346 (nucleic acid) guide: mA*mA*mA*rGrUrUrCrUrArGrArUrGrCrUrGrUrCrCrGrGrUrUrUrUrArGrAmGmCmUmAmGmAmAmAmUmAmGmCrArArGrUrUrArArArArUrArArGrGrCrUrArGrUrCrCrGrUrUrArUrCrAmAmCmUmUmGmAmAmAmAmAmGmUmGmGmCmAmCmCmGmAmGmUmCmGmGmUmGmCmU*mU*mU*mU	0
G000490: TTR sgRNA modified sequence, Human, SEQ ID No. 97; guide sequence of CR003366 (nucleic acid) guide: mA*mA*mA*rUrArGrArCrArCrCrArArArUrCrUrUrArCrGrUrUrUrUrArGrAmGmCmUmAmGmAmAmAmUmAmGmCrArArGrUrUrArArArArUrArArGrGrCrUrArGrUrCrCrGrUrUrArUrCrAmAmCmUmUmGmAmAmAmAmAmGmUmGmGmCmAmCmCmGmAmGmUmCmGmGmUmGmCmU*mU*mU*mU	12
G000494: TTR sgRNA modified sequence, Human, SEQ ID No. 101; guide sequence of CR003360 (nucleic acid) guide: mG*mU*mG*rArGrUrCrUrGrGrArGrArGrCrUrGrCrArUrGrUrUrUrUrArGrAmGmCmUmAmGmAmAmAmUmAmGmCrArArGrUrUrArArArArUrArArGrGrCrUrArGrUrCrCrGrUrUrArUrCrAmAmCmUmUmGmAmAmAmAmAmGmUmGmGmCmAmCmCmGmAmGmUmCmGmGmUmGmCmU*mU*mU*mU	4

Task: Quick one: # Sites in HekCas9 cells (Example 5) for G000571: TTR sgRNA modified sequence, Human, SEQ ID No. 112; guide sequence of CR005301 (nucleic acid) guide: mG*mU*mC*rArCrArGrArArArCrArCrUrCrArCrCrGrUrGrUrUrUrUrArGrAmGmCmUmAmGmAmAmAmUmAmGmCrArArGrUrUrArArArArUrArArGrGrCrUrArGrUrCrCrGrUrUrArUrCrAmAmCmUmUmGmAmAmAmAmAmGmUmGmGmCmAmCmCmGmAmGmUmCmGmGmUmGmCmU*mU*mU*mU ?
Result: 16

Task: Quick one: # Sites in HekCas9 cells (Example 5) for G000572: TTR sgRNA modified sequence, Human, SEQ ID No. 113; guide sequence of CR003385 (nucleic acid) guide: mC*mC*mC*rCrUrArCrUrCrCrUrArUrUrCrCrArCrCrArGrUrUrUrUrArGrAmGmCmUmAmGmAmAmAmUmAmGmCrArArGrUrUrArArArArUrArArGrGrCrUrArGrUrCrCrGrUrUrArUrCrAmAmCmUmUmGmAmAmAmAmAmGmUmGmGmCmAmCmCmGmAmGmUmCmGmGmUmGmCmU*mU*mU*mU ?
Result: 15

Task: Quick one: # Sites in HekCas9 cells (Example 5) for G000491: TTR sgRNA modified sequence, Human, SEQ ID No. 98; guide sequence of CR003338 (nucleic acid) guide: mA*mU*mA*rCrCrArGrUrCrCrArGrCrArArGrGrCrArGrGrUrUrUrUrArGrAmGmCmUmAmGmAmAmAmUmAmGmCrArArGrUrUrArArArArUrArArGrGrCrUrArGrUrCrCrGrUrUrArUrCrAmAmCmUmUmGmAmAmAmAmAmGmUmGmGmCmAmCmCmGmAmGmUmCmGmGmUmGmCmU*mU*mU*mU ?
Result: 28
